System: Plasmodium falciparum 3D7 asexual blood stage
experiment: microbe, parasite or virus in culture
condition_info: 3D7, read-out: IC50 P. falciparum 3D7 ABS
pIC50: −log10 of the molar value.

[
  {
    "molecule": "CCCCCCCCCCCCCCCCOP(=O)([O-])OCC[N+](C)(C)C [Miltefosine, reference compound]",
    "target_under_test": "Plasmodium falciparum 3D7 asexual blood stage",
    "pIC50": "< 4.70"
  },
  {
    "molecule": "CC1CS(=O)(=O)CCN1/N=C/c1ccc([N+](=O)[O-])o1 (stereo not drawn) [Nifurtimox, reference compound]",
    "target_under_test": "Plasmodium falciparum 3D7 asexual blood stage",
    "pIC50": "< 4.70"
  },
  {
    "molecule": "CC(=O)NC[C@H]1CN(c2ccc(N3CCOCC3)c(F)c2)C(=O)O1 [Linezolid, reference compound]",
    "target_under_test": "Plasmodium falciparum 3D7 asexual blood stage",
    "pIC50": "< 4.70"
  },
  {
    "molecule": "CO[C@H]1/C=C/O[C@@]2(C)Oc3c(C)c(O)c4c(O)c(c(/C=N/N5CCN(C)CC5)c(O)c4c3C2=O)NC(=O)/C(C)=C\\C=C\\[C@H](C)[C@H](O)[C@@H](C)[C@@H](O)[C@@H](C)[C@H](OC(C)=O)[C@@H]1C [Rifampin, reference compound]",
    "target_under_test": "Plasmodium falciparum 3D7 asexual blood stage",
    "pIC50": 5.65
  },
  {
    "molecule": "Cc1ccc(C(=O)Nc2ccc(S(=O)(=O)O)c3cc(S(=O)(=O)O)cc(S(=O)(=O)O)c23)cc1NC(=O)c1cccc(NC(=O)Nc2cccc(C(=O)Nc3cc(C(=O)Nc4ccc(S(=O)(=O)O)c5cc(S(=O)(=O)O)cc(S(=O)(=O)O)c45)ccc3C)c2)c1 [Suramin, reference compound]",
    "target_under_test": "Plasmodium falciparum 3D7 asexual blood stage",
    "pIC50": "< 4.70"
  },
  {
    "molecule": "O=C(Cn1ccnc1[N+](=O)[O-])NCc1ccccc1 [Benznidazole, reference compound]",
    "target_under_test": "Plasmodium falciparum 3D7 asexual blood stage",
    "pIC50": "< 4.70"
  },
  {
    "molecule": "[H]/N=C(/N)N[C@H]1[C@H](O)[C@@H](O)[C@H](O[C@@H]2O[C@@H](C)[C@](O)(C=O)[C@H]2O[C@@H]2O[C@@H](CO)[C@H](O)[C@@H](O)[C@@H]2NC)[C@@H](N/C(N)=N\\[H])[C@@H]1O [Streptomycin, reference compound]",
    "target_under_test": "Plasmodium falciparum 3D7 asexual blood stage",
    "pIC50": "< 4.70"
  },
  {
    "molecule": "CCN(CC)C(=O)N1CCN(C)CC1 [Diethylcarbamazine, reference compound]",
    "target_under_test": "Plasmodium falciparum 3D7 asexual blood stage",
    "pIC50": "< 4.70"
  },
  {
    "molecule": "CC[C@@H]([C@H](C)O)n1ncn(-c2ccc(N3CCN(c4ccc(OC[C@@H]5CO[C@@](Cn6cncn6)(c6ccc(F)cc6F)C5)cc4)CC3)cc2)c1=O [Posaconazole, reference compound]",
    "target_under_test": "Plasmodium falciparum 3D7 asexual blood stage",
    "pIC50": 5.39
  },
  {
    "molecule": "CC[C@@H](CO)NCCN[C@@H](CC)CO [Ethambutol, reference compound]",
    "target_under_test": "Plasmodium falciparum 3D7 asexual blood stage",
    "pIC50": "< 4.70"
  },
  {
    "molecule": "N=C(N)c1ccc(OCCCCCOc2ccc(C(=N)N)cc2)cc1 [Pentamidine, reference compound]",
    "target_under_test": "Plasmodium falciparum 3D7 asexual blood stage",
    "pIC50": 8.00
  },
  {
    "molecule": "O=C(C1CCCCC1)N1CC(=O)N2CCc3ccccc3C2C1 (stereo not drawn) [Praziquantel, reference compound]",
    "target_under_test": "Plasmodium falciparum 3D7 asexual blood stage",
    "pIC50": "< 4.70"
  }
]
